Collected set of pIC50 measured with Serine/threonine-protein kinase pim-2 (Homo sapiens, UniProt Q9P1W9) across studies.
Please keep in mind that pIC50 is minus log10 of the molar concentration; only the number is needed.

Past entries and their recorded results:
>>> numeric_readout("Nc1ccc(-c2c(F)cccc2F)nc1-c1cc2c(N3CCC[C@@H](N)C3)ccnc2cn1")
7.62
>>> numeric_readout("N[C@H]1C[C@@H](F)CN(c2ccncc2NC(=O)c2csc(-c3c(F)cccc3F)n2)C1")
7.26
>>> numeric_readout("N[C@H]1C[C@H](F)CN(c2ccncc2NC(=O)c2csc(-c3c(F)cccc3F)n2)C1")
7.15
>>> numeric_readout("COc1ccc(F)c(-c2nc(C(=O)Nc3cnccc3[C@@H]3C[C@H](C)C[C@H](N)C3)cs2)c1F (stereo in doubt)")
8.40

Now look at this entry.
Query "COC(=O)c1cc(F)c(-c2nc(C(=O)Nc3cnccc3N3C[C@@H](N)[C@H](O)[C@@H](C)C3)ccc2F)c(F)c1" on Serine/threonine-protein kinase pim-2 (Homo sapiens, UniProt Q9P1W9); pIC50 returned: 8.60

###

We begin with pIC50 values for Serine/threonine-protein kinase pim-2 (Homo sapiens), as collected from the published literature.
Hey, just a heads up that pIC50 is the negative log base 10 of the concentration in molar.

>>> numeric_readout("C[C@@H]1C[C@H](N)C[C@H](c2ccncc2NC(=O)c2nc(-c3c(F)cc(OC4CCOCC4)cc3F)c(F)cc2N)C1")
9.04
>>> numeric_readout("N[C@H]1CCCN(c2ccncc2NC(=O)c2csc(C3CCCCC3)n2)C1")
6.68

The measured pIC50 that "O=C1NC(=O)/C(=C/c2ccc(OC(F)(F)F)cc2)S1" showed for Serine/threonine-protein kinase pim-2 (Homo sapiens) is 6.30

pIC50 for Serine/threonine-protein kinase pim-2 (Homo sapiens) with input "CN1CCCN(c2cccc(-c3cccc(/C=C/C(=O)O)c3)n2)CC1" equals 7.34

Result for NC1CC(C(F)(F)F)CN(c2ccncc2NC(=O)c2csc(C3CCCCC3)n2)C1 (stereo not shown) , tested on Serine/threonine-protein kinase pim-2 (Homo sapiens), pIC50: 7.68

###

Collected set of IC50 measured with Serine/threonine-protein kinase pim-2 (Homo sapiens, UniProt Q9P1W9) across studies.
We'd kindly ask you to apply these IC50 classes: I = under 0.9 nM, II = from 0.9 nM up to 40 nM, III = 40 nM and over

>>> assigned_category("C[C@@H]1C[C@H](N)C[C@H](c2ccncc2NC(=O)c2ccc(F)c(-c3c(F)cc(C4CCOCC4)cc3F)n2)C1")
"II"

Query string: Assign a category based on measured IC50 for "O=C1NCCC12CCN(c1ccc3nnn(-c4cccc(OC(F)(F)F)c4)c3n1)CC2" and give only the class name.
Result string: III

Query string: Determine which band this compound sits in: "N[C@H]1CCCN(c2ccnc3ccc(-c4cccc(-c5nccs5)n4)cc23)C1"
Result string: III

Query string: Which category does the recorded IC50 put "COCCc1cc(F)c(-c2nc(C(=O)Nc3cnccc3N3C[C@@H](N)[C@H](O)[C@@H](C)C3)ccc2F)c(F)c1" in?
Result string: I

Query string: Sort into band: "C[C@H]1CN(c2ccncc2NC(=O)c2ccc(F)c(-c3c(F)cc(O[C@H]4CCCOC4)cc3F)n2)C[C@@H](N)[C@@H]1O"
Result string: I

Query string: Form: Item = "CC(C)Oc1cc(F)c(-c2nc(C(=O)Nc3cnccc3[C@@H]3C[C@H](C)C[C@H](N)C3)c(N)cc2F)c(F)c1" ; Class = ?
Result string: II

Query string: Which IC50 band matches "C[C@@H]1C[C@H](N)C[C@H](c2ccncc2NC(=O)c2ccc(F)c(-c3c(F)cc4c(c3F)OCC4)n2)C1" ?
Result string: I

Query string: Sort into band: "O[C@H]1CC[C@@H](CNc2ccc3nnn(-c4cccc(OC(F)(F)F)c4)c3n2)CC1"
Result string: III

Query string: Which band does "C[C@@H]1C[C@H](N)C[C@H](c2ccncc2NC(=O)c2ccc(F)c(-c3c(F)cc(C4(O)CCCC4)cc3F)n2)C1" fall in?
Result string: II

Query string: Bin this entry: "CCc1cc(-c2cnc3ccc(NC45CCC(O)(CC4)C5)nn23)c[nH]1"
Result string: III
